- Assay protocol: inducers of Vibrio cholerae quorum light production without autoinducers, primary screen, BH1578 luxS cqsA deficient, single point (AID 588436)
- Stated conditions: V. cholerae BH1578 lux reporter, luminescence, 6 h, at 18.7 µM
Screen size: about 350,000 compounds; about 550 (0.16%) were called active. Rule as the data show it: active = activation mostly above about 9.7% (no sharp cut-off); inconclusive = no clear call, values can overlap the other calls; inactive = mostly below about 3.7%. Only a selection was taken, and actives are over-represented in it overall.
Assign a class; possible classes are active, inactive

Please share the test call associated with "CC(=O)OCCN(CCCn1c(-c2ccncc2)nc2ccccc21)c1nc(-c2ccc(C)cc2)cs1" .
inactive

Assay result, entry "COc1cc(C(=O)NCC(=O)NCCSc2ccc(Br)cc2)cc(OC)c1OC" — outcome?
inactive

Which outcome was assigned to "Cn1c(C(=O)O)ccc1S(=O)(=O)N(Cc1ccccc1)Cc1ccccc1" in this test?
inactive

What did this assay record as the result for "NNC(=O)c1nnn(-c2nonc2N)c1CN1CCCC1" ?
active

Hey, what did the test say about COc1ccc2[nH]c(=O)c(CN(CC3CCCO3)C(=O)Nc3ccccc3)cc2c1 (stereo unspecified) ?
inactive

Fill in: this test's call for "N#Cc1c(C(F)(F)F)cc(-c2ccccc2)nc1SCC(=O)N1CCOCC1" is ___
inactive

What was the test verdict on "CCCC(=O)Nc1ccc2c(c1)nc1n2CCSC1" ?
inactive

Returns: the outcome recorded for "CN(CCc1ccccc1)c1ccc([N+](=O)[O-])cn1" in this assay.
inactive

Tell me the assay call for CCNC(=O)C1(C)CCN(Cc2ccc(C(=O)OCC)o2)C1 (stereo unspecified) please.
inactive

Assay result, entry COc1ccc(-n2ncc3c2CC(C)(C)CC3NC(=O)CCc2c(C)noc2C)cc1 (stereo unspecified) — outcome?
inactive

Entry "O=[N+]([O-])c1cnc2ccc3ccccc3c2c1" : call = ?
active
